- measurement.target: alpha3 (ganglionic) nACh receptors (Homo sapiens, UniProt P30926+P32297)
- Construct: using the native SH-SY5Y cell line; endogenous in cells
- Sequence (P32297 32-505): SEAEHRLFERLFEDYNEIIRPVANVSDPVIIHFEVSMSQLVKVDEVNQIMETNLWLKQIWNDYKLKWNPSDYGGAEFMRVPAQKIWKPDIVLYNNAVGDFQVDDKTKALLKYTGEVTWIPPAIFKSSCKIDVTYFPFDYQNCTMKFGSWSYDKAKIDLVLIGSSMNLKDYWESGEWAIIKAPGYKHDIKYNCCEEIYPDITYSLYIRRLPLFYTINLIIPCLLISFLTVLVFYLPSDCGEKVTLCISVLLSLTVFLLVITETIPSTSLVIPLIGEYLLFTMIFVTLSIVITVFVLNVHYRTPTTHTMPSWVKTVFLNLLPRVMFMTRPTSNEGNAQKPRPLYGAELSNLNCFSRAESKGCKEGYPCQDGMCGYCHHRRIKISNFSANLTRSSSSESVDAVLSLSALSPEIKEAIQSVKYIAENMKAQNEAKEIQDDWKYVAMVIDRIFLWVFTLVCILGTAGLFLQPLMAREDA
- Sequence (P30926 22-498): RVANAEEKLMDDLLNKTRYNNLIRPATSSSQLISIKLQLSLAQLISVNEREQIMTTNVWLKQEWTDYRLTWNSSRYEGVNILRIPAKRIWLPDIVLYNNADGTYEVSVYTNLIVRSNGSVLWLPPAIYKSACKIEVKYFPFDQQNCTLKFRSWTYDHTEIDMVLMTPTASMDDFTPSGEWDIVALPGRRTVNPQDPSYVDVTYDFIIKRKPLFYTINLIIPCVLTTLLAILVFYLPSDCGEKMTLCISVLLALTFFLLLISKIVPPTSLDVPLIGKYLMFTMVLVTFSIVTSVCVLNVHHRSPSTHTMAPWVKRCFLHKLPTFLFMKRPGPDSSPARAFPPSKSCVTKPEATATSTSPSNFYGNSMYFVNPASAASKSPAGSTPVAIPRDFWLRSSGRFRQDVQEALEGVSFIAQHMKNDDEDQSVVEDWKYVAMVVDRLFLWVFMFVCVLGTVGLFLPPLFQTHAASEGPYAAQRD
- measurement.description: calcium-monitoring FLIPR selectivity assay using the native SH-SY5Y cell line
- protocol.conditions: read-out: Alpha 3 EC50
What pEC50 was measured for each of the following?
Answer as the number alone; pEC50 is minus log10 of concentration in mol/L.

**Query** # lookup: pEC50 of `COc1ccc(-c2ccc(NC(=O)NCCCCN3CCCCC3)cc2)cc1`
**Result** 5.75

**Query** # lookup: pEC50 of `Cn1cc(-c2ccc(NC(=O)NCCCCN3CCCCC3)cc2)cn1`
**Result** 5.30

**Query** # lookup: pEC50 of `O=C(NCCCCN1CCCCC1)Nc1ccc(-c2ccc(F)nc2)cc1`
**Result** 5.92

**Query** # lookup: pEC50 of `O=C(NCCCCN1CCCCC1)Nc1ccc(-c2cccnc2)nc1`
**Result** 5.01

**Query** # lookup: pEC50 of `O=C(NCCCCN1CCCCC1)Nc1ccc(-c2cccs2)nc1`
**Result** 5.07

**Query** # lookup: pEC50 of `O=C(NCCCCN1CCCCC1)Nc1ccc(-c2ccccc2)nc1`
**Result** 5.00

**Query** # lookup: pEC50 of COc1ncccc1-c1ccc(NC(=O)NCCCCN2CCCCC2)cn1 [drawing 62]
**Result** 4.80

**Query** # lookup: pEC50 of `O=C(NCCCCN1CCCCC1)Nc1ccc(-c2cccnc2)cc1`
**Result** 5.44

**Query** # lookup: pEC50 of `O=C(NCCCCN1CCCCC1)Nc1ccc(-c2cccc(F)c2)cc1`
**Result** 5.75

**Query** # lookup: pEC50 of `O=C(NCCCC[N+]1([O-])CCCCC1)Nc1ccc(-c2ccc(F)cc2)nc1`
**Result** 5.01

**Query** # lookup: pEC50 of `O=C(NCCCCN1CCCCC1)Nc1ccc(-c2ccc3c(c2)OCO3)cc1`
**Result** 5.76

###

- measurement.target: CYP2D6 (Homo sapiens, UniProt P10635)
- Sequence (P10635 whole entry, species assumed): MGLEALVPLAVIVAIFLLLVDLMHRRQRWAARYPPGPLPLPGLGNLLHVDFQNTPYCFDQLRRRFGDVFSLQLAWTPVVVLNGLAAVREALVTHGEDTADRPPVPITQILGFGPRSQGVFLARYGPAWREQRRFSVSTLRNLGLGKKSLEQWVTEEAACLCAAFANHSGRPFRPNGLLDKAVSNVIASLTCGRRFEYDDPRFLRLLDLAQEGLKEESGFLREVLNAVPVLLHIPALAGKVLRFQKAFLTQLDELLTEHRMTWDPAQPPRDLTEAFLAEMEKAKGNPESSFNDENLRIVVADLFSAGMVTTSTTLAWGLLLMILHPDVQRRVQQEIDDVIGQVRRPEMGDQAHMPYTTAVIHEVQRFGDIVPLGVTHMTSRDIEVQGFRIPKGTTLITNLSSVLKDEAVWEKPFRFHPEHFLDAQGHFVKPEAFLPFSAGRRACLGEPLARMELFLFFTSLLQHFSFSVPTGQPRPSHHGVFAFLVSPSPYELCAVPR
- measurement.description: CYP2D6 % inhibition
- Assay type: in vitro ADME
quantity.name: CYP2D6 % inhibition (%)
Express the result in % but write the number alone.

**Query** # lookup: CYP2D6 % inhibition of `O=C(NCCCCN1CCCCC1)Nc1ccc(-c2cccs2)nc1`
**Result** 7

**Query** # lookup: CYP2D6 % inhibition of `O=C(NCCCCN1CCCCC1)Nc1ccc(-c2ccc3c(c2)OCO3)cc1`
**Result** 97

**Query** # lookup: CYP2D6 % inhibition of `COc1ccc(F)c(-c2ccc(NC(=O)NCCCCN3CCCCC3)cn2)c1`
**Result** 18

**Query** # lookup: CYP2D6 % inhibition of `O=C(NCCCCN1CCCCC1)Nc1ccc(-c2cccnc2)cc1`
**Result** 72

**Query** # lookup: CYP2D6 % inhibition of `O=C(NCCCCN1CCCCC1)Nc1ccc(-c2cccc(F)c2)nc1`
**Result** 10

**Query** # lookup: CYP2D6 % inhibition of `O=C(NCCCCN1CCCCC1)Nc1ccc(-c2ccc(F)cc2)cc1`
**Result** 65

**Query** # lookup: CYP2D6 % inhibition of `O=C(NCCCCN1CCCCC1)Nc1ccc(-c2ccccc2)nc1`
**Result** 6

**Query** # lookup: CYP2D6 % inhibition of `O=C(NCCCCN1CCCCC1)Nc1ccc(-c2cccs2)cc1`
**Result** 69

**Query** # lookup: CYP2D6 % inhibition of `Cn1cc(-c2ccc(NC(=O)NCCCCN3CCCCC3)cn2)cn1`
**Result** 1

**Query** # lookup: CYP2D6 % inhibition of `Cn1cc(-c2ccc(NC(=O)NCCCCN3CCCCC3)cc2)cn1`
**Result** 45

**Query** # lookup: CYP2D6 % inhibition of `COc1ccc(-c2ccc(NC(=O)NCCCCN3CCCCC3)cc2)cc1`
**Result** 97

**Query** # lookup: CYP2D6 % inhibition of `O=C(NCCCCN1CCCCC1)Nc1ccc(-c2ccc(F)nc2)nc1`
**Result** 8

**Query** # lookup: CYP2D6 % inhibition of `COc1ccccc1-c1ccc(NC(=O)NCCCCN2CCCCC2)cc1`
**Result** 38

**Query** # lookup: CYP2D6 % inhibition of COc1ncccc1-c1ccc(NC(=O)NCCCCN2CCCCC2)cn1 [drawing 62]
**Result** 8

**Query** # lookup: CYP2D6 % inhibition of `COc1ccccc1-c1ccc(NC(=O)NCCCCN2CCCCC2)cn1`
**Result** 8

**Query** # lookup: CYP2D6 % inhibition of `O=C(NCCCCN1CCCCC1)Nc1ccc(-c2cccc(F)c2)cc1`
**Result** 62

**Query** # lookup: CYP2D6 % inhibition of COc1ncccc1-c1ccc(NC(=O)NCCCCN2CCCCC2)cn1 [drawing 63]
**Result** 8

**Query** # lookup: CYP2D6 % inhibition of `O=C(NCCCCN1CCCCC1)Nc1ccc(-c2ccc3c(c2)OCO3)nc1`
**Result** 79

**Query** # lookup: CYP2D6 % inhibition of `O=C(NCCCCN1CCCCC1)Nc1ccc(-c2ccncc2)nc1`
**Result** 12

**Query** # lookup: CYP2D6 % inhibition of `O=C(NCCCCN1CCCCC1)Nc1ccc(-c2ccncc2)cc1`
**Result** 48

**Query** # lookup: CYP2D6 % inhibition of `COc1ccc(-c2ccc(NC(=O)NCCCCN3CCCCC3)cn2)cc1`
**Result** 54

**Query** # lookup: CYP2D6 % inhibition of `O=C(NCCCCN1CCCCC1)Nc1ccc(-c2ccccc2F)cc1`
**Result** 75

**Query** # lookup: CYP2D6 % inhibition of `COc1ccc(F)c(-c2ccc(NC(=O)NCCCCN3CCCCC3)cc2)c1`
**Result** 83

**Query** # lookup: CYP2D6 % inhibition of `O=C(NCCCCN1CCCCC1)Nc1ccc(-c2ccccc2)cc1`
**Result** 64

**Query** # lookup: CYP2D6 % inhibition of `O=C(NCCCCN1CCCCC1)Nc1ccc(-c2cccnc2)nc1`
**Result** 22

**Query** # lookup: CYP2D6 % inhibition of `O=C(NCCCCN1CCCCC1)Nc1ccc(-c2ccccc2F)nc1`
**Result** 14

**Query** # lookup: CYP2D6 % inhibition of `O=C(NCCCCN1CCCCC1)Nc1ccc(-c2ccc(F)nc2)cc1`
**Result** 21
